# Test system: SR leukemia
# ASSAY NAME: NCI tumour cell line growth inhibition, 48 h; in the data active = GI50 below about 0.43 µM; inactive = the rest
Result category, one only: active, inactive

Query: What classification did O=C1C=C(OCC=C(C(F)(F)F)C(F)(F)F)c2ccccc2C1=O end up with in this test?
Reply: inactive

Query: What classification did CN(C)Cc1ccc(NC(=O)c2cncc(C#Cc3cnc(N)c4ncccc34)c2)cc1F end up with in this test?
Reply: inactive

Query: What classification did O=C(Nc1cc(Cl)ccc1O)c1cccc(Nc2ccnc(C(F)(F)F)c2)c1 end up with in this test?
Reply: inactive

Query: What classification did CC1=C(C(=O)Nc2ccc(F)c(Cl)c2)C(c2cccc(Oc3ccccc3)c2)NC(=S)N1 (stereo unspecified) end up with in this test?
Reply: inactive

Query: What classification did Cn1cc(C2=C(c3cn(CCCN)c4ccccc34)C(=O)NC2=O)c2ccccc21 end up with in this test?
Reply: inactive

Query: What classification did Fc1ccc(-c2nn3ccccc3c2-c2ccncc2)cc1 end up with in this test?
Reply: inactive

Query: What classification did CCOc1ccc(C(C[N+](=O)[O-])Sc2ccccc2N)cc1 (stereo unspecified) end up with in this test?
Reply: inactive

Query: What classification did O=C(Nc1cc(Cl)ccc1O)c1ccccc1Nc1ccnc(C(F)(F)F)c1 end up with in this test?
Reply: inactive

Query: What classification did N#Cc1nc(C#N)c(Sc2ccccc2)c(Sc2ccccc2)c1Sc1ccccc1 end up with in this test?
Reply: active

Query: What classification did COc1ccc(C2C(C#N)=C(N)Oc3c2sc2c(Br)cccc32)cc1 (stereo unspecified) end up with in this test?
Reply: inactive

Query: What classification did Cc1nc2sc3c(N)ncnc3c2c(C)c1C end up with in this test?
Reply: inactive
